Target: human DGAT2 (Homo sapiens)
Sequence (Q96PD7 whole entry): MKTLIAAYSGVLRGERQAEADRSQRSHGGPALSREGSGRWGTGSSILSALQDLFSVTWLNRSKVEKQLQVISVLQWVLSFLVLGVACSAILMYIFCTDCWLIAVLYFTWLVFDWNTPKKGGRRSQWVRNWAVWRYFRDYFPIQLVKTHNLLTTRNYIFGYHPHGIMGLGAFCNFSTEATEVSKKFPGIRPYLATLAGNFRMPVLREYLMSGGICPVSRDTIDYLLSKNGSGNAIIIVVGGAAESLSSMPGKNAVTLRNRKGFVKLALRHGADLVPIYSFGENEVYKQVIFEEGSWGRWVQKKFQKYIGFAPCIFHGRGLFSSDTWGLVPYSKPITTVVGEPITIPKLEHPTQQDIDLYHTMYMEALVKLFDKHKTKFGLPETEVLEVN
propertyLabel: log10(IC50) (log10 of the value in nM)

molecule	log10(IC50)
CC1(NC(=O)c2cc3cc(Oc4ncc(C#N)cc4OCC(F)(F)F)ccn3n2)CCS(=O)(=O)CC1	1.30
CC1(NC(=O)c2nn3ccc(Oc4ncc(F)cc4OCC(F)(F)F)cc3c2F)CS(=O)(=O)C1	2.11
CC(O)c1c(C(=O)NC2(C)CCS(=O)(=O)CC2)nn2ccc(Oc3ncccc3OCC(F)(F)F)cc12 (single isomer, unassigned) [Example 52a]	3.20
CC(C)(CNS(C)(=O)=O)NC(=O)c1cc2cc(Oc3ncccc3OCC(F)(F)F)ccn2n1	2.84
O=C(NC1(C(F)F)CCS(=O)(=O)CC1)c1nc2cc(Oc3ncc(Cl)cc3OCC(F)(F)F)ccn2n1	2.22
CC1(NC(=O)c2cc3cc(Oc4nccnc4OCC(F)F)ccn3n2)CCS(=O)(=O)CC1	0.36
CC(O)c1c(C(=O)NC2(C)CCS(=O)(=O)CC2)nn2ccc(Oc3ncccc3OCC(F)(F)F)cc12 (single isomer, unassigned) [Example 52b]	2.52
Cc1c(C(=O)NC2(C)CS(=O)(=O)C2)nn2ccc(Oc3ncccc3OCC(F)(F)F)cc12	2.23
CC1(NC(=O)c2cc3cc(Oc4ncccc4OCC(F)(F)F)ccn3n2)CS(=O)(=O)C1	2.17
CC1(NC(=O)c2cc3cc(Oc4ncc(Cl)cc4OCC(F)(F)F)ccn3n2)CS(=O)(=O)C1	0.40
